Data origin: paper PMC2875168

system: HMEC; test: Cell growth, sulforhodamine B; assay type: cell-based; settings: read-out: IC50 growth inhibition, Breast, 72 hours, SRB
PROPERTY: IC50 (µM)
Expressed in µM, but write only the number.

Exam item: Notebook: pull reported IC50 for HMEC, entry "CC(C)c1cnn2c(NCc3ccccc3)cc(NCCCCCCN)nc12"
Marked response: 17.3

###

target: CK1; assay: Kinase panel follow-up IC50 measurement; conditions: read-out: IC50 CK1
PROPERTY: pIC50
# pIC50 = -log10(concentration in molar units)

Exam item: Request the reported pIC50 associated with "CC(C)c1cnn2c(NCc3ccccc3)cc(NCCCCCCN)nc12"
Marked response: 5.13

###

assay: In vivo pharmacokinetics; conditions: mice, 10 mg/kg i.p.
PROPERTY: plasma concentration at 15 minutes (ng/mL)
Expressed in ng/mL, but write only the number.

Exam item: Request the reported plasma concentration at 15 minutes associated with "CC(C)c1cnn2c(NCc3ccccc3)cc(NCCCCCCN)nc12"
Marked response: 1950

###

molecular target: DYRK1A (Homo sapiens)
PROPERTY: pIC50
# pIC50 = -log10(concentration in molar units)

Exam item: Request the reported pIC50 associated with "CC(C)c1cnn2c(NCc3ccccc3)cc(NCCCCCCN)nc12"
Marked response: 5.64

###

biological target: CDK4/cycD1 (Homo sapiens); assay: In vitro kinase assay; conditions: read-out: IC50 CDK4
Sequence (P11802 whole entry): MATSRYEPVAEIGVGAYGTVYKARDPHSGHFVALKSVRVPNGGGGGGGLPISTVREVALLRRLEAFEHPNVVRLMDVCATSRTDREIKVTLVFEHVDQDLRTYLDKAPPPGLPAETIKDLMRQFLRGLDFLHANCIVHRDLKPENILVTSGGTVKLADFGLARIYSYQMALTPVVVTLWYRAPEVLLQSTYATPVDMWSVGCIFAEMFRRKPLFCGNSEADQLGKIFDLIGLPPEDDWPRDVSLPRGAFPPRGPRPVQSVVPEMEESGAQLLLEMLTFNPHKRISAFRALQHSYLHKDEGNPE
Sequence (P24385 whole entry partner): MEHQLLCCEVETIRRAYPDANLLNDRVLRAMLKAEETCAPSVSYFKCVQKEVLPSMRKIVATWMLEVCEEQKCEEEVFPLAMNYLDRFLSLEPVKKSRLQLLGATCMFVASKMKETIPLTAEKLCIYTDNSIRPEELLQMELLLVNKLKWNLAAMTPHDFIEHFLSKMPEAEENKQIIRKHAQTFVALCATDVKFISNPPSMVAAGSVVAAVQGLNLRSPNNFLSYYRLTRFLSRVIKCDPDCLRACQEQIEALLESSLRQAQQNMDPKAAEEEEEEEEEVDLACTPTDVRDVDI
PROPERTY: IC50

Exam item: Notebook: pull reported IC50 for CDK4/cycD1 (Homo sapiens), entry "CC(C)c1cnn2c(NCc3ccccc3)cc(NCCCCCCN)nc12"
Marked response: > 5 µM

###

tested on: PC3; experiment: Cell growth, sulforhodamine B; assay type: cell-based; details: read-out: IC50 growth inhibition; Prostate, PC3, 72 hours, SRB
PROPERTY: pIC50
# pIC50 = -log10(concentration in molar units)

Exam item: Request the reported pIC50 associated with CC(C)c1cnn2c(NCc3ccccc3)cc(NCCCCCCN)nc12 [BS-181]
Marked response: 4.74

###

target: CDK6/cycD1 (Homo sapiens, UniProt Q00534); assay: In vitro kinase assay; conditions: read-out: IC50 CDK6
Sequence (Q00534 whole entry, species assumed): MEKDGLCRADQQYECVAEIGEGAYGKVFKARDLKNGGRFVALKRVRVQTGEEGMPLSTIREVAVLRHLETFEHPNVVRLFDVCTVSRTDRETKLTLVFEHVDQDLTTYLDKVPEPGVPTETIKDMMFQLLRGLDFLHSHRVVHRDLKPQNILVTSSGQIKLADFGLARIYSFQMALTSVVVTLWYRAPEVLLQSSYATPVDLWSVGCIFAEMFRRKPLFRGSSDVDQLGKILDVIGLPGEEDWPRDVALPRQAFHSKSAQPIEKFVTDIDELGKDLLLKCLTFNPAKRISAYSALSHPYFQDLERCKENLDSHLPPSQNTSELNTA
Sequence (P24385 whole entry partner, species assumed): as the sequence (P24385 whole entry partner) above
PROPERTY: IC50

Exam item: Request the reported IC50 associated with "CC(C)c1cnn2c(NCc3ccccc3)cc(NCCCCCCN)nc12"
Marked response: > 5 µM

###

tested on: BT474; assay: Cell growth, sulforhodamine B; type: cell-based; conditions: read-out: IC50 growth inhibition; Breast, BT474, 72 hours, SRB
PROPERTY: pIC50
# pIC50 = -log10(concentration in molar units)

Exam item: Request the reported pIC50 associated with CC(C)c1cnn2c(NCc3ccccc3)cc(NCCCCCCN)nc12 [BS-181]
Marked response: 4.52

###

assay: In vivo pharmacokinetics; details: mice, 10 mg/kg i.v.
PROPERTY: plasma concentration at 15 minutes

Exam item: Request the reported plasma concentration at 15 minutes associated with CC(C)c1cnn2c(NCc3ccccc3)cc(NCCCCCCN)nc12 [BS-181]
Marked response: 2530 ng/mL

###

system: HCT-116; test: Cell growth, sulforhodamine B; format: cell-based; details: read-out: IC50 growth inhibition; Colorectal, HCT-116, 72 hours, SRB
PROPERTY: pIC50
# pIC50 = -log10(concentration in molar units)

Exam item: Request the reported pIC50 associated with "CC(C)c1cnn2c(NCc3ccccc3)cc(NCCCCCCN)nc12"
Marked response: 4.82
